- System: OVCAR-8 ovarian
- testProtocol: NCI-60 one-dose screen, 48 h (100 = growth as untreated, 0 = no growth, -100 = all killed)
- settings: 10 µM unless noted
About 83,000 compounds went through this panel and 20% of them were active in at least one assay; those are over-represented in the sample as a whole.
Returns label 1 if the recorded growth is greater than or equal to 90%, and label 0 otherwise.

[
  {
    "compound": "Cc1c(O)c(=O)ccn1-c1nc2ccccc2s1",
    "labelClass": "label 0"
  },
  {
    "compound": "C#C[C@@]1(O)[C@@H](CO)O[C@@H](n2cc(Br)c3c(N)ncnc32)[C@@H]1O",
    "labelClass": "label 0"
  },
  {
    "compound": "CCO/C=N/S(=O)(=O)c1cc2c(cc1Cl)NC=NS2(=O)=O",
    "labelClass": "label 1"
  },
  {
    "compound": "Cc1cccc(C)c1NCc1nnc(-c2ccc(O)cc2)o1",
    "labelClass": "label 1"
  },
  {
    "compound": "O=C(NCc1ccccc1)c1ccc2c(c1)NC(=O)[C@@H]1CCCN21",
    "labelClass": "label 1"
  },
  {
    "compound": "O=C1NC(SCc2ccc(F)cc2)=N/C1=C/c1cccc(OCc2ccc(Cl)cc2)c1",
    "labelClass": "label 0"
  },
  {
    "compound": "CN(C)CCCn1c2c(c3cc(-c4cccc(S(N)(=O)=O)c4)ccc3c1=O)C(=O)c1ccccc1-2",
    "labelClass": "label 0"
  },
  {
    "compound": "CSc1nc(-c2cccs2)c2c(N)[nH]nc2n1",
    "labelClass": "label 1"
  },
  {
    "compound": "O=C(N/N=C/C[C@@H]1[C@@H](/C=C/[C@@H](O)COc2cccc(Cl)c2)[C@H](O)C[C@@H]1O)c1ccncc1",
    "labelClass": "label 0"
  },
  {
    "compound": "Cc1ccccc1NC(=O)c1sc2nc(C)c(C(C)O)cc2c1N (centres undefined)",
    "labelClass": "label 0"
  },
  {
    "compound": "Nc1c(C(=O)Nc2cccc3ccccc23)sc2nc3c(cc12)COCC3",
    "labelClass": "label 0"
  },
  {
    "compound": "COC(=O)c1oc2c(C(=O)/C=C/c3ccc(OC)cc3)c(OCCCN3CCCCC3)ccc2c1C",
    "labelClass": "label 0"
  },
  {
    "compound": "Cc1cc(C)cc(Nc2nccc(-c3c(-c4ccc(F)cc4)ncn3C3CCNCC3)n2)c1",
    "labelClass": "label 0"
  },
  {
    "compound": "O=C(O)C(C(=O)O)c1cccc2ccccc12",
    "labelClass": "label 1"
  },
  {
    "compound": "O=C(NC[C@H](O)CN1CCc2ccccc2C1)c1cc(NC2COC2)ncn1",
    "labelClass": "label 1"
  },
  {
    "compound": "NCCCn1c2c(c3cc(-c4ccn[nH]4)ccc3c1=O)C(=O)c1ccccc1-2",
    "labelClass": "label 0"
  },
  {
    "compound": "CN(C)C(CNc1oc(-c2cccc3ccccc23)nc1C#N)c1ccco1 (centres undefined)",
    "labelClass": "label 1"
  },
  {
    "compound": "COc1ccc([C@H]2[C@@H](F)C(=O)N2c2cc(OC)c(OC)c(OC)c2)cc1F",
    "labelClass": "label 0"
  },
  {
    "compound": "COc1ccc(Nc2cc(NC(=O)CNc3cc(OC)c(Cl)c(OC)c3Cl)ncn2)cc1",
    "labelClass": "label 0"
  },
  {
    "compound": "O=C(Nc1ccc2ncnc(Nc3cccc(C(F)(F)F)c3)c2c1)c1cccs1",
    "labelClass": "label 0"
  },
  {
    "compound": "Cc1[nH]c(N=Nc2ccccc2)nc1N=Nc1ccccc1",
    "labelClass": "label 0"
  },
  {
    "compound": "COc1ccc(C2=NN(c3ccc(S(N)(=O)=O)cc3)C(c3ccc(Cl)cc3)C2)c(O)c1 (centres undefined)",
    "labelClass": "label 0"
  },
  {
    "compound": "O=C(CCl)N1CCCc2ccccc21",
    "labelClass": "label 1"
  },
  {
    "compound": "c1ccc2c3c([nH]c2c1)C(c1ccc(C2NCCc4c2[nH]c2ccccc42)cc1)NCC3 (centres undefined)",
    "labelClass": "label 0"
  },
  {
    "compound": "COc1cc(/C=C/C(=O)/C=C/c2cc3ccc(Cl)cc3n(Cc3ccccc3)c2=O)ccc1O",
    "labelClass": "label 0"
  },
  {
    "compound": "COc1ccc2[nH]c(=O)c(/C=C/C(=O)/C=C/c3ccc(O)c(OC)c3)cc2c1",
    "labelClass": "label 0"
  },
  {
    "compound": "CC(=O)Nc1nc2c(c(N)c1C#N)C(c1cccc(Cl)c1)C1=C(CCCC1=O)N2c1sc2c(c1C#N)CCCC2 (centres undefined)",
    "labelClass": "label 0"
  },
  {
    "compound": "CN1CCN(CC#CCOC(=O)CNC(=O)[C@]23CCC(C)(C)C[C@H]2C2=CC[C@@H]4[C@@]5(C)CC[C@H](O)C(C)(C)[C@@H]5CC[C@@]4(C)[C@]2(C)CC3)CC1",
    "labelClass": "label 0"
  },
  {
    "compound": "S=C(Nc1ccc(Cl)cc1)c1ccccn1",
    "labelClass": "label 1"
  },
  {
    "compound": "CCOC(=O)c1cnn(-c2nc(-c3ccc(F)cc3)c(C#N)c(N3CCOCC3)n2)c1N",
    "labelClass": "label 1"
  },
  {
    "compound": "CCOC(=O)NCCc1nc2c([nH]1)c(=O)n(C)c(=O)n2C",
    "labelClass": "label 1"
  },
  {
    "compound": "c1ccc(-c2cn3ccnc3c(-c3ccc4c(c3)ncn4C3CCCCC3)n2)cc1",
    "labelClass": "label 1"
  },
  {
    "compound": "COc1cc(C2=NN(C=O)C(c3cccc(Nc4ccnc5cc(C(F)(F)F)ccc45)c3)C2)cc(OC)c1OC (centres undefined)",
    "labelClass": "label 0"
  },
  {
    "compound": "O=C1NN(c2ccccc2)C(c2ccc3c(c2)OCO3)N2CCC[C@@H]12 (some centres undefined)",
    "labelClass": "label 1"
  },
  {
    "compound": "C=C(C)[C@@H]1CC[C@]2(C(=O)OCCOCCOCC[P+](c3ccccc3)(c3ccccc3)c3ccccc3)CC[C@]3(C)[C@H](CC[C@@H]4[C@@]5(C)CC[C@H](C)C(C)(C)[C@@H]5CC[C@]43C)[C@@H]12",
    "labelClass": "label 0"
  },
  {
    "compound": "Oc1ccc(CNNc2ccnc3c(O)cccc23)c2cccnc12",
    "labelClass": "label 0"
  },
  {
    "compound": "COc1cc(C(C)c2ccc3c(ccn3C)c2)cc(OC)c1OC (centres undefined)",
    "labelClass": "label 0"
  }
]
